Assay: Metabolic stability in Wistar rat plasma assessed as half life by HPLC analysis
Type: ADME, cell-free

{"smiles.notation": "N=C(N)NCCC[C@@H](NC(=O)[C@@H](CCCNC(=N)N)NC(=O)[C@@H]1CCCN1C(=O)c1ccccc1)C(=O)N[C@@H](CCC(N)=O)C(=O)N[C@H](CN[C@H]1CSSC[C@@H](C(N)=O)NC1=O)CC1CCCCC1", "half-life [h]": 16}
